Salmonella Spp.: reported MIC90 for various compounds.
readout: MIC90 (µg/mL)

[
  {
    "chem-smiles": "CC1(C)S[C@@H]2[C@H](NC(=O)[C@H](N)c3ccccc3)C(=O)N2[C@H]1C(=O)O",
    "system": "Salmonella Spp.",
    "relation": ">",
    "result-value": 64
  },
  {
    "chem-smiles": "CC(=O)OCC1=C(C(=O)O)N2C(=O)[C@@H](NC(=O)Cc3cccs3)[C@H]2SC1",
    "system": "Salmonella Spp.",
    "relation": "=",
    "result-value": 16
  },
  {
    "chem-smiles": "CON(C)Cc1ccc(O)c2c1C[C@H]1C[C@H]3[C@H](N(C)C)C(O)=C(C(N)=O)C(=O)[C@@]3(O)C(O)=C1C2=O",
    "system": "Salmonella Spp.",
    "relation": ">",
    "result-value": 64
  },
  {
    "chem-smiles": "CN(C)[C@@H]1C(O)=C(C(N)=O)C(=O)[C@@]2(O)C(O)=C3C(=O)c4c(O)cccc4[C@@](C)(O)[C@H]3C[C@@H]12",
    "system": "Salmonella Spp.",
    "relation": ">",
    "result-value": 64
  },
  {
    "chem-smiles": "O=C(O)c1cn(C2CC2)c2cc(N3CCNCC3)c(F)cc2c1=O",
    "system": "Salmonella Spp.",
    "relation": "=",
    "result-value": 0.03
  }
]
